Target: T1, EsCas13d, nuclease-dead (Eubacterium siraeum, UniProt B0MS50, R295A;H300A;R849A;H854A)
T1 sequence: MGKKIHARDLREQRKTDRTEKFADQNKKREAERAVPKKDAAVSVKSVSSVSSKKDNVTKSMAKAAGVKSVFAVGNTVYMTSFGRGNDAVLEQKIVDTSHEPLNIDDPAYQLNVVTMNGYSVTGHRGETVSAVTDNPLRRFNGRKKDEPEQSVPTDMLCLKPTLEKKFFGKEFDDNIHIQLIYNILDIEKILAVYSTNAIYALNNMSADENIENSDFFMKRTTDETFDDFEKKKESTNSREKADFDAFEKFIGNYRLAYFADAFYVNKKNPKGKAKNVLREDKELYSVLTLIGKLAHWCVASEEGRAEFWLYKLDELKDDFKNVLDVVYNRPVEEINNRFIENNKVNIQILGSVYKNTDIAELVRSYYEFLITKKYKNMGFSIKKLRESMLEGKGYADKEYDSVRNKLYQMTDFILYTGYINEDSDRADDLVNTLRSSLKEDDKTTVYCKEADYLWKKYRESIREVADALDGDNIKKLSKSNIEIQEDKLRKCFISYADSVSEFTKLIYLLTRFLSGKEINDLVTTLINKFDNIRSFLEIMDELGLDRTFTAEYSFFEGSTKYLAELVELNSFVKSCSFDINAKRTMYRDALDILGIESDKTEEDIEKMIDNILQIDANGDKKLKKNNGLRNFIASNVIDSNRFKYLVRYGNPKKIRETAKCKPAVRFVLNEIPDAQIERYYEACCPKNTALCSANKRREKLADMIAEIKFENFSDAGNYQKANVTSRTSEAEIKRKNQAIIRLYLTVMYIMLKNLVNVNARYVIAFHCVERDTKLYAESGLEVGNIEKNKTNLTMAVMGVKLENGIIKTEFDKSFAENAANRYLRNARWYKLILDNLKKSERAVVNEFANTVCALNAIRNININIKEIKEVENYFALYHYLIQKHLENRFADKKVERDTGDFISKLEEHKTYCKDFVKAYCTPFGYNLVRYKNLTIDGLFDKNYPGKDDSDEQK
Experiment: crRNA (strand 1, pre-loaded); Mg2+; 40 mM Tris-HCl pH 7.5, 150 mM NaCl, 6 mM MgCl2, 1 mM DTT, 0.1% Tween-20, 0.2 mg/ml BSA; 25 C; 10 min per concentration, then washed
Details: tags: His6-TwinStrep-SUMO cleaved; N-terminal SNAP kept (SNAP-Surface 488); label: 3' end held by stalled T7 RNA polymerase
RESULT TYPE: pKd
Kindly note that pKd refers to -log10 of the concentration in mol/L and answer with the value alone.

In: I have this binder here, target 2 MT 5'PFS ACG 3'PFS AUA (mixed) RNA 1: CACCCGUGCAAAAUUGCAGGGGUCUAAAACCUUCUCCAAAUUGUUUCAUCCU RNA 2: GGGAAUGGAUCCACAUCUACGAAUUCACGAGGAUGAAACAAUUUGGAGAAGAUAAGAUCGGAAGAGCACACGU , and I need its recorded pKd.
Out: 7.96

In: Item: target 2 MT 5'PFS CAU 3'PFS ACC (mixed) RNA 1: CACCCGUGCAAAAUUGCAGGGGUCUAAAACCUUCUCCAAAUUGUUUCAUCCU RNA 2: GGGAAUGGAUCCACAUCUACGAAUUCCAUAGGAUGAAACAAUUUGGAGAAGACCAGAUCGGAAGAGCACACGU
Out: 8.23

In: Also target 1 insG 3' of 10,insG 3' of 10 (mixed) RNA 1: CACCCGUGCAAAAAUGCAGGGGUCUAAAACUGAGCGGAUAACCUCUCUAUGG RNA 2: GGGAAUGGAUCCACAUCUACGAAUUCGUACCAUAGAGAGGUUGGAUCCGCUCACCGAGAUCGGAAGAGCACACGU ?
Out: 7.66

In: Same for target 1 insA 3' of 15,insA 3' of 3 (mixed) RNA 1: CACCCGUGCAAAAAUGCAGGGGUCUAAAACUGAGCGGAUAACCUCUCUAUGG RNA 2: GGGAAUGGAUCCACAUCUACGAAUUCGUACCAUAGAGAAGGUUAUCCGCUACACCGAGAUCGGAAGAGCACACGU
Out: 8.13

In: Also need target 2 MT 5'PFS UGC 3'PFS UGC (mixed) RNA 1: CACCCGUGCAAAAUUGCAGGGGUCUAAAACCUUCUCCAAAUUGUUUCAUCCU RNA 2: GGGAAUGGAUCCACAUCUACGAAUUCUGCAGGAUGAAACAAUUUGGAGAAGUGCAGAUCGGAAGAGCACACGU , thanks.
Out: 7.19

In: # iterate: target 3 insU 3' of 4,insU 3' of 3 (mixed) RNA 1: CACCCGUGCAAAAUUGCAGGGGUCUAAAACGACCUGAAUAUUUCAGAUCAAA RNA 2: GGGAAUGGAUCCACAUCUACGAAUUCGUUUUUGAUCUGAAAUAUUCAGUGUUCUGCAGAUCGGAAGAGCACACGU
Out: 7.82

Reference source: paper PMC10786891
